tested on: Salmonella typhimurium TA100; conditions: TA100 +S9, 5 μg/plate

[
  {
    "sample-smiles": "Cc1oc2c(C)c3oc(=O)cc(C)c3cc2c1CNCCCCN",
    "revertants per plate": 12
  },
  {
    "sample-smiles": "Cc1oc2c(C)c3oc(=O)cc(C)c3cc2c1COCCCN",
    "revertants per plate": "−10"
  },
  {
    "sample-smiles": "Cc1oc2c(C)c3oc(=O)cc(C)c3cc2c1CCN",
    "revertants per plate": "−19"
  },
  {
    "sample-smiles": "Cc1oc2c(C)c3oc(=O)cc(C)c3cc2c1COCCN",
    "revertants per plate": "−18"
  },
  {
    "sample-smiles": "Cc1oc2c(C)c3oc(=O)cc(C)c3cc2c1CNCCN",
    "revertants per plate": "−24"
  }
]

====

system: Salmonella typhimurium TA1538; assay: Ames assay (dark mutagenicity), strain TA1538; settings: TA1538 −S9, 5 μg/plate
// NB: equality with -2 counts as criterion not met; only revertants per plate strictly below is criterion met

[
  {
    "compound": "Cc1oc2c(C)c3oc(=O)cc(C)c3cc2c1CNCCCCN",
    "category": "criterion met"
  },
  {
    "compound": "Cc1oc2c(C)c3oc(=O)cc(C)c3cc2c1CN [AMT, 4′-Aminomethyl-4,5′,8-trimethylpsoralen, reference compound]",
    "category": "criterion not met"
  },
  {
    "compound": "Cc1oc2c(C)c3oc(=O)cc(C)c3cc2c1CCN",
    "category": "criterion not met"
  },
  {
    "compound": "Cc1oc2c(C)c3oc(=O)cc(C)c3cc2c1COCCN",
    "category": "criterion met"
  },
  {
    "compound": "Cc1oc2c(C)c3oc(=O)cc(C)c3cc2c1CNCCN",
    "category": "criterion not met"
  }
]

====

tested on: Salmonella typhimurium TA1538; test: Ames assay (dark mutagenicity), strain TA1538; conditions: TA1538 −S9, 10 μg/plate
Assign rule met whenever revertants per plate does not fall below -2; assign rule not met whenever it does.

[
  {
    "molecule": "Cc1oc2c(C)c3oc(=O)cc(C)c3cc2c1COCCN",
    "category": "rule not met"
  },
  {
    "molecule": "Cc1oc2c(C)c3oc(=O)cc(C)c3cc2c1CNCCN",
    "category": "rule met"
  },
  {
    "molecule": "Cc1oc2c(C)c3oc(=O)cc(C)c3cc2c1CCN",
    "category": "rule not met"
  },
  {
    "molecule": "Cc1oc2c(C)c3oc(=O)cc(C)c3cc2c1CN [AMT, 4′-Aminomethyl-4,5′,8-trimethylpsoralen, reference compound]",
    "category": "rule met"
  }
]

====

system: Salmonella typhimurium TA100; conditions: TA100 +S9, 10 μg/plate
Binary classification by revertants per plate, with 1 as an inclusive lower bound for class 1; all other cases are class 0.

[
  {
    "sample-smiles": "Cc1oc2c(C)c3oc(=O)cc(C)c3cc2c1COCCCN",
    "category": "class 0"
  },
  {
    "sample-smiles": "Cc1oc2c(C)c3oc(=O)cc(C)c3cc2c1CNCCCCN",
    "category": "class 0"
  },
  {
    "sample-smiles": "Cc1oc2c(C)c3oc(=O)cc(C)c3cc2c1CNCCN",
    "category": "class 0"
  },
  {
    "sample-smiles": "Cc1oc2c(C)c3oc(=O)cc(C)c3cc2c1CCN",
    "category": "class 1"
  }
]
